# Target: uPA (Homo sapiens, UniProt P00749)
# Test Name: FRET peptide cleavage efficiency with uPA
# Type: biochemical
# Recorded Conditions: t = 60 min; 200 uM linker, 1 ug/ml protease, 37° C., buffer A pH 8.5
Square brackets hold non-standard residues; d marks the D form. Ends that are not written are not given here. Tyr(3-NO2) = N[C@@H](Cc1ccc(O)c([N+](=O)[O-])c1)C(=O)O; 2Abz = Nc1ccccc1C(=O)O
Listed here are substances together with their documented % cleavage uPA t = 60 min.
Be sure to follow the number with its unit.

Would you please look over these solved cases?
{"columns": ["Substance", "% cleavage uPA t = 60 min"],
 "data": [
  ["SGRPLGYFGKL ([2Abz]SGRPLGYFGKL[Tyr(3-NO2)]-NH2) [LNK056]", "0%"],
  ["ISQYSSAT ([2Abz]ISQYSSAT[Tyr(3-NO2)]-NH2) [LNK070]", "0%"],
  ["RGRRHSSKLQ ([2Abz]RGRRHSSKLQ[Tyr(3-NO2)]-NH2) [LNK052]", "0%"],
  ["SSRGPASNRRLPLGLAG ([2Abz]SSRGPASNRRLPLGLAG[Tyr(3-NO2)]-NH2) [LNK001]", "17%"],
  ["SGRVLRKAGPANLVG ([2Abz]SGRVLRKAGPANLVG[Tyr(3-NO2)]-NH2) [LNK014]", "2%"]
]}

Consider the substance RGRRPLGLAG ([2Abz]RGRRPLGLAG[Tyr(3-NO2)]-NH2) [LNK049] and give its measured % cleavage uPA t = 60 min.
0%

Consider the substance SSRVFRKPANLAG ([2Abz]SSRVFRKPANLAG[Tyr(3-NO2)]-NH2) [LNK019] and give its measured % cleavage uPA t = 60 min.
6%

Consider the substance RRLNYSL ([2Abz]RRLNYSL[Tyr(3-NO2)]-NH2) [LNK074] and give its measured % cleavage uPA t = 60 min.
0%

###

# Target: MMP-9 (Homo sapiens)
# Construct: purchased SIGMA PF024
# Sequence (P14780 94-707): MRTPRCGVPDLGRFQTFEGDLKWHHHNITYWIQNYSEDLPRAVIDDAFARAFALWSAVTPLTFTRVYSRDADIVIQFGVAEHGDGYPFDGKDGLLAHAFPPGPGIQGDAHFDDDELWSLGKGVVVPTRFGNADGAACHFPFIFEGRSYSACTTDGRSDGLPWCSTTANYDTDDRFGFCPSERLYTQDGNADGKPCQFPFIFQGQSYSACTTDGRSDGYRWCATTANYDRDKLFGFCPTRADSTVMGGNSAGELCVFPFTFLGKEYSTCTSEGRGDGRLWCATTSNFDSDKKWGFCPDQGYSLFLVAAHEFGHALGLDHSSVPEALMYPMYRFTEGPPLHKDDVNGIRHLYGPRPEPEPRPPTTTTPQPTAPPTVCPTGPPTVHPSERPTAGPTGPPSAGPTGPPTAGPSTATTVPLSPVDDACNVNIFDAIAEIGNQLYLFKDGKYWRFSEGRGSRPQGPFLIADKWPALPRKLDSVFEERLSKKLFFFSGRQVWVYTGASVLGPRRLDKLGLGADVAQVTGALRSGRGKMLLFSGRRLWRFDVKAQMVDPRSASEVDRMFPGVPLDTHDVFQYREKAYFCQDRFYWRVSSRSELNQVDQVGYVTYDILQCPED
# Test Name: FRET peptide cleavage efficiency with MMP-9 (standard pH 7.5; also pH 6.5)
# Assay type: biochemical
# Recorded Conditions: t = 60 min (Table 9)
Square brackets hold non-standard residues; d marks the D form. Ends that are not written are not given here. Tyr(3-NO2) = N[C@@H](Cc1ccc(O)c([N+](=O)[O-])c1)C(=O)O; 2Abz = Nc1ccccc1C(=O)O
Listed here are substances together with their documented % cleavage MMP-9 t = 60 min.

{"columns": ["Substance", "% cleavage MMP-9 t = 60 min"],
 "data": [
  ["SGRVLRKAGPQPLVD ([2Abz]SGRVLRKAGPQPLVD[Tyr(3-NO2)]-NH2) [LNK003]", "72%"],
  ["RGRKSPANLVG ([2Abz]RGRKSPANLVG[Tyr(3-NO2)]-NH2) [LNK034]", "100%"],
  ["RGRKPQPLVD ([2Abz]RGRKPQPLVD[Tyr(3-NO2)]-NH2) [LNK039]", "74%"],
  ["SGRVANPLGGSG ([2Abz]SGRVANPLGGSG[Tyr(3-NO2)]-NH2) [LNK053]", "3%"],
  ["RGRRSGRAANLVRPLGYFGKL ([2Abz]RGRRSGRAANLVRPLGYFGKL[Tyr(3-NO2)]-NH2) [LNK059]", "100%"]
]}

Consider the substance RGRRHSSKLQPLGYFGKL ([2Abz]RGRRHSSKLQPLGYFGKL[Tyr(3-NO2)]-NH2) [LNK062] and give its measured % cleavage MMP-9 t = 60 min.
100%

Consider the substance SGRVYMLQG ([2Abz]SGRVYMLQG[Tyr(3-NO2)]-NH2) [LNK044] and give its measured % cleavage MMP-9 t = 60 min.
1%

###

# Target: matriptase (Homo sapiens, UniProt Q9Y5Y6)
# Construct: purchased R&D Systems 3946-SEB
# Sequence (Q9Y5Y6 615-855 limits assumed): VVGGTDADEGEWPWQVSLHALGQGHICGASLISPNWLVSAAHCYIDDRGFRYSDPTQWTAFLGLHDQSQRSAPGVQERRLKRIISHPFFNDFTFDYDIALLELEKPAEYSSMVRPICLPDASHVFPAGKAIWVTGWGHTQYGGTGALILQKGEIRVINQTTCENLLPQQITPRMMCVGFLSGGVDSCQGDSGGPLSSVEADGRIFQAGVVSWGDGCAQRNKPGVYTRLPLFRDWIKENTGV
# Test Name: FRET peptide cleavage efficiency with matriptase
# Type: biochemical
# Recorded Conditions: t = 60 min; 200 uM linker, 1 ug/ml protease, 37° C., buffer B pH 9.0
Square brackets hold non-standard residues; d marks the D form. Ends that are not written are not given here. Tyr(3-NO2) = N[C@@H](Cc1ccc(O)c([N+](=O)[O-])c1)C(=O)O; Nle = CCCC[C@H](N)C(=O)O; 2Abz = Nc1ccccc1C(=O)O
Rule: % cleavage Matriptase t = 60 min of 90% or more gives Condition met; anything lower gives Condition not met.

The examples below pair each entry with its known result.
{"columns": ["Substance", "Assigned Label"],
 "data": [
  ["SSRGPASNRRLPLGLAG ([2Abz]SSRGPASNRRLPLGLAG[Tyr(3-NO2)]-NH2) [LNK001]", "Condition met"],
  ["SGRVLTLRKAGPANLVG ([2Abz]SGRVLTLRKAGPANLVG[Tyr(3-NO2)]-NH2) [LNK012]", "Condition met"],
  ["KSKQHSL ([2Abz]KSKQHSL[Tyr(3-NO2)]-NH2) [LNK077]", "Condition not met"],
  ["RQRRS-Nle-PLGLAG ([2Abz]RQRRS[Nle]PLGLAG[Tyr(3-NO2)]-NH2) [LNK025]", "Condition not met"]
]}

We now examine a further substance.
State whether the measured % cleavage Matriptase t = 60 min reaches 90%, counting equality as reaching it, for RQRRSVVGG ([2Abz]RQRRSVVGG[Tyr(3-NO2)]-NH2) [LNK029]
Condition met

###

# Target: MMP-2 (Homo sapiens)
# Construct: purchased SIGMA PF023
# Sequence (P08253 110-660): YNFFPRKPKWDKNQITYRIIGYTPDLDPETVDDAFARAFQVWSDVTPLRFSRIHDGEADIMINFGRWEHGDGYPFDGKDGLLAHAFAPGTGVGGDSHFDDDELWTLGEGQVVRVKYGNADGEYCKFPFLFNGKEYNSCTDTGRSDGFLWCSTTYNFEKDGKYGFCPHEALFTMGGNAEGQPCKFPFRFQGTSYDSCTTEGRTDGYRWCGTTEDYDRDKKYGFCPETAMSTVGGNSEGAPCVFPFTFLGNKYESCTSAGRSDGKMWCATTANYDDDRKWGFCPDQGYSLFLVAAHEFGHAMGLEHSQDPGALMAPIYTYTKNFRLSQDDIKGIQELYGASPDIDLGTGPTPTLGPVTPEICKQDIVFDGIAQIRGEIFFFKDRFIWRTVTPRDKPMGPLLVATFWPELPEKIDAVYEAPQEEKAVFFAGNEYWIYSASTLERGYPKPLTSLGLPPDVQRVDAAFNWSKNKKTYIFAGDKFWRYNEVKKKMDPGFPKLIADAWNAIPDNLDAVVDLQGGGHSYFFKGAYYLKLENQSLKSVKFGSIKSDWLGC
# Test Name: FRET peptide cleavage efficiency with MMP-2
# Assay type: biochemical
# Recorded Conditions: pH 7.5; t = 15 min (Table 7)
Square brackets hold non-standard residues; d marks the D form. Ends that are not written are not given here. Tyr(3-NO2) = N[C@@H](Cc1ccc(O)c([N+](=O)[O-])c1)C(=O)O; 2Abz = Nc1ccccc1C(=O)O
Endpoint Label: % cleavage MMP-2 t = 15 min
Be sure to follow the number with its unit.

Would you please look over these solved cases?
{"columns": ["Polymer Sequence", "% cleavage MMP-2 t = 15 min"],
 "data": [
  ["SGRVANLVG (not fully specified (N-terminus, C-terminus)) [LNK017]", "37%"],
  ["RQRRSPLGLAG ([2Abz]RQRRSPLGLAG[Tyr(3-NO2)]-NH2) [LNK010]", "66%"]
]}

Okay, now this sequence:
Consider the sequence SSRGRRGPYMLQG ([2Abz]SSRGRRGPYMLQG[Tyr(3-NO2)]-NH2) [LNK021] and give its measured % cleavage MMP-2 t = 15 min.
24%

###

# Target: Kallikrein-3 (Homo sapiens)
# Sequence (P07288 25-261, species assumed): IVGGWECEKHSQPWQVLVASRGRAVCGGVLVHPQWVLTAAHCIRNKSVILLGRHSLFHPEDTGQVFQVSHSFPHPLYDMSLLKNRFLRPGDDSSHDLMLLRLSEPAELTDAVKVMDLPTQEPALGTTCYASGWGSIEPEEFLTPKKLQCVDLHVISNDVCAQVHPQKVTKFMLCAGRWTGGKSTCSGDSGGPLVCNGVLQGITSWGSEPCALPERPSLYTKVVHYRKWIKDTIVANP
# Test Name: FRET peptide cleavage efficiency with Kallikrein-3
# Assay type: biochemical
# Recorded Conditions: t = 3 h; peptide 200 uM, Kallikrein-3 2 μg/ml, 37° C., pH 8
Square brackets hold non-standard residues; d marks the D form. Ends that are not written are not given here. Tyr(3-NO2) = N[C@@H](Cc1ccc(O)c([N+](=O)[O-])c1)C(=O)O; 2Abz = Nc1ccccc1C(=O)O
Rule: Kallikrein-3 t = 3 h % cleavage of 50% or more gives t; anything lower gives f.

The examples below pair each entry with its known result.
{"columns": ["Substance", "Assigned Label"],
 "data": [
  ["RRLNYSL ([2Abz]RRLNYSL[Tyr(3-NO2)]-NH2) [LNK074]", "t"],
  ["HSSKLQYFGKL ([2Abz]HSSKLQYFGKL[Tyr(3-NO2)]-NH2) [LNK061]", "f"],
  ["RGRRHSSKLQPLGYFGKL ([2Abz]RGRRHSSKLQPLGYFGKL[Tyr(3-NO2)]-NH2) [LNK062]", "t"],
  ["SSLQSSPG ([2Abz]SSLQSSPG[Tyr(3-NO2)]-NH2) [LNK066]", "f"],
  ["HSSKLQL ([2Abz]HSSKLQL[Tyr(3-NO2)]-NH2) [LNK078]", "f"]
]}

State whether the measured Kallikrein-3 t = 3 h % cleavage reaches 50%, counting equality as reaching it, for SSLYSSPG ([2Abz]SSLYSSPG[Tyr(3-NO2)]-NH2) [LNK065]
t

State whether the measured Kallikrein-3 t = 3 h % cleavage reaches 50%, counting equality as reaching it, for SQYQSSPG ([2Abz]SQYQSSPG[Tyr(3-NO2)]-NH2) [LNK067]
f

State whether the measured Kallikrein-3 t = 3 h % cleavage reaches 50%, counting equality as reaching it, for SSQYSSPG ([2Abz]SSQYSSPG[Tyr(3-NO2)]-NH2) [LNK069]
f
